Would you kindly list AC50 for each of these molecules?
experimental target: 5-hydroxytryptamine receptor 2B (Homo sapiens, UniProt P41595); further: assay procedure not described here
Sequence (P41595 whole entry): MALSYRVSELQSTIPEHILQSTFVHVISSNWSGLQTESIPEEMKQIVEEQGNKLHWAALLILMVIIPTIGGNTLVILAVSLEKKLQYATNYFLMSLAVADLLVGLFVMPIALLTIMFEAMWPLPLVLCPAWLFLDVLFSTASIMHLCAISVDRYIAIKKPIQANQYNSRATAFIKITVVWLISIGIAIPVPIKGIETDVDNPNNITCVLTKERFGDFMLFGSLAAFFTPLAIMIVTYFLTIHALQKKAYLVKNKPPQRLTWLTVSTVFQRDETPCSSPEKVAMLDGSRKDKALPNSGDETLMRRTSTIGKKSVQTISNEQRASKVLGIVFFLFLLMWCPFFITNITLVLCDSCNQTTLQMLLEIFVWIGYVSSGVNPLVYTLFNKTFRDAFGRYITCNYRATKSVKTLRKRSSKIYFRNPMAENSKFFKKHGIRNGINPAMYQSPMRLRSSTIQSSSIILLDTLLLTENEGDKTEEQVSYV
Type: functional, cell-based

// returns AC50 for Cc1nc([N+](=O)[O-])cn1-c1ccc([N+](=O)[O-])cc1 with 5-hydroxytryptamine receptor 2B (Homo sapiens, UniProt P41595); value = > 30 µM

Test item C=CCC1(CC(C)C)C(=O)NC(=O)NC1=O ; 5-hydroxytryptamine receptor 2B (Homo sapiens, UniProt P41595); reported AC50 was > 10 µM

// assay 5-hydroxytryptamine receptor 2B (Homo sapiens, UniProt P41595), entry CCCC(=O)O[C@]1(C(=O)CO)CC[C@H]2[C@@H]3CCC4=CC(=O)CC[C@]4(C)[C@H]3[C@@H](O)C[C@@]21C [HYDROCORTISONE BUTYRATE] , AC50 value = > 10 µM

So the reported AC50 for c1ccc([C@H]2CN3CCSC3=N2)cc1 , on 5-hydroxytryptamine receptor 2B (Homo sapiens, UniProt P41595), turned out to be > 30 µM

5-hydroxytryptamine receptor 2B (Homo sapiens, UniProt P41595) assay, molecule CN1CCN(C2=Nc3ccccc3Sc3ccc(Cl)cc32)CC1 , recorded AC50 = > 30 µM

Summary: CN1CCN(CC/C=C2/c3ccccc3Sc3ccc(S(=O)(=O)N(C)C)cc32)CC1 , 5-hydroxytryptamine receptor 2B (Homo sapiens, UniProt P41595), AC50 = > 10 µM

The molecule Nc1nc(/C(=C/CC(=O)O)C(=O)N[C@@H]2C(=O)N3C(C(=O)O)=CCS[C@H]23)cs1 on 5-hydroxytryptamine receptor 2B (Homo sapiens, UniProt P41595): AC50 was > 30 µM

Reported AC50 (5-hydroxytryptamine receptor 2B (Homo sapiens, UniProt P41595)) for entry Clc1ccc(C(c2ccccc2Cl)C(Cl)Cl)cc1 (centres undefined) is > 10 µM

Kindly note: 5-hydroxytryptamine receptor 2B (Homo sapiens, UniProt P41595), COc1ccccc1N1CCN(CCCNc2cc(=O)n(C)c(=O)n2C)CC1 , AC50 value reported: > 30 µM

The observed AC50 for c1cnc(N2CCN(Cc3ccc4c(c3)OCO4)CC2)nc1 when tested with 5-hydroxytryptamine receptor 2B (Homo sapiens, UniProt P41595) stands at > 30 µM

Record CCCCN1C[C@H](O)[C@@H](O)[C@H](O)[C@H]1CO ; system 5-hydroxytryptamine receptor 2B (Homo sapiens, UniProt P41595); AC50 = > 30 µM

Simply: CN1C(=O)C(O)N=C(c2ccccc2)c2cc(Cl)ccc21 (centres undefined) , 5-hydroxytryptamine receptor 2B (Homo sapiens, UniProt P41595), AC50 = > 10 µM

The molecule CNC(=O)c1ccccc1Sc1ccc2c(/C=C/c3ccccn3)n[nH]c2c1 on 5-hydroxytryptamine receptor 2B (Homo sapiens, UniProt P41595): AC50 was > 30 µM

Bench note, 5-hydroxytryptamine receptor 2B (Homo sapiens, UniProt P41595): CCCc1nc(C(C)(C)O)c(C(=O)OCc2oc(=O)oc2C)n1Cc1ccc(-c2ccccc2-c2nnn[nH]2)cc1 , AC50 reads > 10 µM

Reported AC50 (5-hydroxytryptamine receptor 2B (Homo sapiens, UniProt P41595)) for entry O=C(NCCN1CCOCC1)c1ccc(Cl)cc1 [MOCLOBEMIDE] is > 10 µM

# lookup: CN(C)/N=N/c1[nH]cnc1C(N)=O on 5-hydroxytryptamine receptor 2B (Homo sapiens, UniProt P41595), AC50 = > 10 µM

Lab note: molecule Clc1ccc2nsnc2c1NC1=NCCN1 tested on 5-hydroxytryptamine receptor 2B (Homo sapiens, UniProt P41595); recorded AC50 was > 30 µM

Assay 5-hydroxytryptamine receptor 2B (Homo sapiens, UniProt P41595), sample O=C(Cc1ccc(-c2ccccc2)cc1)Nc1ccccn1 [DIFENPIRAMIDE] , AC50 read: > 30 µM

Reported 5-hydroxytryptamine receptor 2B (Homo sapiens, UniProt P41595) AC50 for item Cn1c(=O)c2c(ncn2CC2OCCO2)n(C)c1=O was > 30 µM

From: ChEMBL document CHEMBL5291721
